- ASSAY SYSTEM: cathepsin K (Homo sapiens)
- Sequence (P43235 115-329): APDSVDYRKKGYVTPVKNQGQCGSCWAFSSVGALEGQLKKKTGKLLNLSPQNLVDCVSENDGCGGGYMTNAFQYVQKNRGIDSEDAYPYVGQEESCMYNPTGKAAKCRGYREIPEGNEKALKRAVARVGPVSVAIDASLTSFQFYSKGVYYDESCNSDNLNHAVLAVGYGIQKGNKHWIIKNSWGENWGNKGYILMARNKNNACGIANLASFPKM
- EXPERIMENT: Cathepsin K proteolytic activity, inhibition studies (Ki) with fluorogenic peptide substrate
- Type: biochemical
- Set-up: made in house; host or cells: not fixed: E coli, Pichia or Baculovirus systems named as options
- CONDITION NOTES: side by side trials in the same assay system; read-out: Cathepsin K K^1
pKi: −log10 of the molar value.
ENDPOINT NAME: pKi

I = CC(C)CC(NC(=O)c1ccc(Oc2ccccc2)cc1)C(=O)N1CC[C@H]2OCC(=O)[C@H]21 (some centres unmarked)
II = CC(C)CC(NC(=O)c1ccc(Oc2ccccc2)cc1)C(=O)N1C[C@H](F)[C@H]2OCC(=O)[C@H]21 (some centres unmarked)
Data request: Param metric = pKi; output whichever of I , II has the minimum value. Provide the label of your selected option as the answer.
Data returned: I
(I: 7.18, II: 8.28)

These measurements were taken from patent US7915300B2.
